Cited source for all entries: ChEMBL document CHEMBL1125386

test description: Binding affinity towards low-affinity site of Atrial natriuretic peptide receptor 1 of rabbit adrenal membrane
Format: tissue-based
Quick reference for KL among some compounds
Hi! Could you send only the number? It should be in nM, unit omitted.

Solved entries:
CC[C@H](C)[C@@H]1NC(=O)[C@@H](CCCN=C(N)N)NC(=O)Cc2cccc(c2)NC(=O)Cc2cccc(c2)NC(=O)[C@@H](Cc2ccccc2)NC(=O)C(C)NC(=O)[C@H](NC(=O)[C@H](CO)NC(=O)[C@@H](N)CO)CSSC[C@H](C(=O)N[C@H](Cc2ccccc2)C(=O)N[C@H](CCCN=C(N)N)C(=O)O)NC(=O)[C@@H]([C@@H](C)CC)NC(=O)[C@H](CCCN=C(N)N)NC(=O)[C@@H](CC(=O)O)NC1=O (stereo in doubt) = 810
CC[C@H](C)[C@@H]1NC(=O)[C@@H](CCCN=C(N)N)NC(=O)CNC(=O)CNC(=O)[C@@H](Cc2ccccc2)NC(=O)[C@@H](C)NC(=O)[C@H](NC(=O)[C@H](CO)NC(=O)[C@@H](N)CO)CSSC[C@H](C(=O)N[C@H](Cc2ccccc2)C(=O)N[C@H](CCCN=C(N)N)C(=O)O)NC(=O)[C@@H]([C@@H](C)CC)NC(=O)[C@H](CCCN=C(N)N)NC(=O)CNC1=O = 740

Then there is this compound:
-- ask Bench note: what KL did CC[C@H](C)[C@@H]1NC(=O)[C@@H](CCCN=C(N)N)NC(=O)CNC(=O)CNC(=O)[C@@H](Cc2ccccc2)NC(=O)[C@@H](C)NC(=O)[C@H](NC(=O)[C@H](CO)NC(=O)[C@@H](N)CO)CSSC[C@H](C(=O)N[C@H](Cc2ccccc2)C(=O)N[C@H](CCCN=C(N)N)C(=O)O)NC(=O)[C@@H]([C@@H](C)CC)NC(=O)[C@H](CCCN=C(N)N)NC(=O)[C@@H](CO)NC1=O show?
-- reply 510

----------
Test system: Atrial natriuretic peptide receptor 1 (Oryctolagus cuniculus)
test description: Binding affinity towards the low-affinity site atrionatriuretic peptide receptor 1 of rabbit adrenal membrane
endpoint: KL (nM)
// units = nM; emit number, no label

CC[C@H](C)[C@@H]1NC(=O)[C@@H](CCCN=C(N)N)NC(=O)CNC(=O)CNC(=O)[C@@H](Cc2ccccc2)NC(=O)[C@H](NC(=O)[C@@H](CO)NC(=O)[C@H](N)CO)CSSC[C@H](C(=O)O)NC(=O)[C@@H](CCCN=C(N)N)NC(=O)[C@H](Cc2ccccc2)NC(=O)[C@@H]([C@@H](C)CC)NC(=O)[C@H](CCCN=C(N)N)NC(=O)[C@@H](CC(=O)O)NC1=O = 790

--- query ---
-- ask State the recorded KL for this entry: CC[C@H](C)[C@@H]1NC(=O)[C@@H](CCCN=C(N)N)NC(=O)CNC(=O)CNC(=O)[C@@H](Cc2ccccc2)NC(=O)[C@H](C2CCCCC2)NC(=O)[C@H](NC(=O)[C@H](CO)NC(=O)[C@@H](N)CO)CSSC[C@H](C(=O)N[C@H](Cc2ccccc2)C(=O)N[C@H](CCCN=C(N)N)C(=O)O)NC(=O)[C@@H]([C@@H](C)CC)NC(=O)[C@H](CCCN=C(N)N)NC(=O)[C@@H](CC(=O)O)NC1=O
-- reply 180

----------
Entries and their measured half-life follow.
test description: In vitro Biological half-life in crude homogenate of rabbit renal cortex
Type: ADME, tissue-based, Oryctolagus cuniculus

Worked set:
CC[C@H](C)[C@@H]1NC(=O)[C@@H](CCCN=C(N)N)NC(=O)CNC(=O)CNC(=O)[C@@H](Cc2ccccc2)NC(=O)C(C)NC(=O)[C@H](NC(=O)[C@H](CO)NC(=O)[C@@H](N)CO)CSSC[C@H](C(=O)N[C@H](Cc2ccccc2)C(=O)N[C@H](CCCN=C(N)N)C(=O)O)NC(=O)[C@@H]([C@@H](C)CC)NC(=O)[C@H](CCCN=C(N)N)NC(=O)[C@@H](CC(=O)O)NC1=O (stereo in doubt) = 5.3 min
CC[C@H](C)[C@@H]1NC(=O)[C@H](CCCN=C(N)N)NC(=O)CNC(=O)CNC(=O)[C@@H](Cc2ccccc2)NC(=O)[C@@H](NC(=O)[C@H](CO)NC(=O)[C@@H](N)CO)CSSC[C@@H](C(=O)N[C@@H](Cc2ccccc2)C(=O)N[C@@H](CCCN=C(N)N)C(=O)O)NC(=O)[C@H]([C@@H](C)CC)NC(=O)[C@H](CCCN=C(N)N)NC(=O)[C@H](CC(=O)O)NC1=O = 5.8 min
CC[C@H](C)[C@@H]1NC(=O)[C@H](CCCN=C(N)N)NC(=O)CNC(=O)CNC(=O)[C@H](Cc2ccccc2)NC(=O)[C@@H](NC(=O)[C@H](CO)NC(=O)[C@@H](N)CO)CSSC[C@@H](C(=O)N[C@@H](Cc2ccccc2)C(=O)N[C@@H](CCCN=C(N)N)C(=O)O)NC(=O)[C@H]([C@@H](C)CC)NC(=O)[C@H](CCCN=C(N)N)NC(=O)[C@H](CC(=O)O)NC1=O = 4.7 min

Below: the item to evaluate.
-- ask Any idea what half-life was measured for CC[C@H](C)[C@@H]1NC(=O)[C@H](CCCN=C(N)N)NC(=O)CNC(=O)CNC(=O)[C@H](Cc2ccccc2)NC(=O)CNC(=O)[C@@H](NC(=O)[C@H](CO)NC(=O)[C@@H](N)CO)CSSC[C@@H](C(=O)N[C@@H](Cc2ccccc2)C(=O)N[C@@H](CCCN=C(N)N)C(=O)O)NC(=O)[C@H]([C@@H](C)CC)NC(=O)[C@H](CCCN=C(N)N)NC(=O)[C@H](CC(=O)O)NC1=O ?
-- reply 3.2 min
